From various publications: log10(IC50) for MMP-8 (Homo sapiens).
// units: µM (pre-log); metric: IC50; scale: log10

Consider the following illustrative entries.
INSERT INTO results (molecule, parameter, result_value) VALUES
  ('CCCCCOc1ccc2c(C(=O)CC(CCn3nnc4ccccc4c3=O)C(=O)O)noc2c1 (racemic)', 'log10(IC50)', -0.24),
  ('O=C(O)[C@@H]1[C@@H](Cn2nnc3ccc(C(F)(F)F)cc3c2=O)CC[C@H]1C(=O)c1ccc(OCc2cccc(N3CCOC3=O)c2)cc1 (single isomer, unassigned)', 'log10(IC50)', -2.70),
  ('Cc1cc(COc2ccc(S(=O)(=O)CC(C=C3CCN(C(=O)OC(C)(C)C)CC3)N(O)C=O)cc2)c2ccccc2n1 (stereo not drawn)', 'log10(IC50)', 1.39),
  ('O=C(CC(CCn1nnc2ccccc2c1=O)C(=O)O)c1cc2cc(OCC3CCOCC3)ccc2o1 (racemic)', 'log10(IC50)', 0.89);

For the next question, use this molecule.
State the measured log10(IC50) (MMP-8 (Homo sapiens)) of O=C(CC(CCn1nnc2ccccc2c1=O)C(=O)O)c1cc2cc(OCc3ccc(F)cc3)ccc2o1 (single isomer, unassigned; (+))
0.80

###

From various publications: pIC50 for UniProt P22894.
Give only the number. pIC50 is defined as minus log10 of concentration in molar units.

State the measured pIC50 (UniProt P22894) of Cc1ccc2nnn(C[C@@H]3CC[C@H](C(=O)c4ccc(OCc5cccc(C(F)(F)F)c5)cc4)[C@H]3C(=O)O)c(=O)c2c1 (racemic)
7.37

State the measured pIC50 (UniProt P22894) of O=C(O)[C@H]1[C@H](Cn2nnc3ccc(C(F)(F)F)cc3c2=O)CC[C@@H]1C(=O)c1ccc(OCCCC2CCCCC2)cc1 (racemic)
6.24

State the measured pIC50 (UniProt P22894) of O=C(CC(CCn1nnc2ccccc2c1=O)C(=O)O)c1cc2cc(OCCCc3ccccc3)ccc2o1 (racemic)
4.92

State the measured pIC50 (UniProt P22894) of COC(=O)Nc1cccc(COc2ccc(C(=O)[C@@H]3CC[C@H](Cn4nnc5ccc(C(F)(F)F)cc5c4=O)[C@H]3C(=O)O)cc2)c1 (stereo in doubt)
8.04

State the measured pIC50 (UniProt P22894) of Cc1ccc(CCC(CS(=O)(=O)c2ccc(OCc3cc(C)nc4ccccc34)cc2)N(O)C=O)cc1 (stereo not drawn)
4.17

###

From various publications: IC50 for MMP-8 (Homo sapiens).
Quick note: give the figure in µM, leave out the unit.

Dear colleague, please send me the reported IC50 for Cc1ccc(C(CS(=O)(=O)c2ccc(OCc3cc(C)nc4ccc(F)cc34)cc2)N(O)C=O)cn1 (stereo not shown) when you can.
20

Dear colleague, please send me the reported IC50 for Cc1cccn(CC2(c3ccc(F)c(F)c3)NC(=O)NC2=O)c1=O (stereo not shown) when you can.
19

Dear colleague, please send me the reported IC50 for O=C(CC(CCn1nnc2ccccc2c1=O)C(=O)O)c1cc2cc(OCc3ccc(C(F)(F)F)cc3)ccc2o1 (racemic) when you can.
28

###

From various publications: pIC50 for UniProtKB P22894.
Give only the number. pIC50 is defined as minus log10 of concentration in molar units.

Consider the following illustrative entries.
INSERT INTO assay_data (compound, parameter, result_value) VALUES
  ('O=C(O)[C@H]1[C@H](Cn2nnc3ccccc3c2=O)CC[C@@H]1C(=O)c1ccc(OCc2cccc(Cl)c2)cc1 (racemic)', 'pIC50', 6.36),
  ('COCc1cc(COc2ccc(S(=O)(=O)CC(C=C3CCC(=NO)CC3)N(O)C=O)cc2)cc(C)n1 (stereo not shown)', 'pIC50', 4.57),
  ('CC(C)(Cc1ccc(F)cc1)NC(=O)[C@H](CCC(=O)O)NC(=O)c1ccc(-c2ccc(F)c(F)c2)cc1', 'pIC50', 6.13),
  ('CCCCCCOc1ccc(C(=O)[C@@H]2CC[C@H](Cn3nnc4ccc(C)cc4c3=O)[C@H]2C(=O)O)cc1 (single isomer, unassigned)', 'pIC50', 7.74),
  ('O=C(CC(CCn1nnc2ccccc2c1=O)C(=O)O)c1noc2cc(OCc3ccccc3)ccc12 (racemic)', 'pIC50', 5.55);

Dear colleague, please send me the reported pIC50 for Cc1cc(COc2ccc(S(=O)(=O)CC(C=C3CCOCC3)N(O)C=O)cc2)c2ccccc2n1 (stereo not shown) when you can.
4.43

Dear colleague, please send me the reported pIC50 for "COc1ccc(-c2ccc(S(=O)(=O)N(OCCOCCN3CCNCC3)[C@H](CCNC(=O)OCc3ccccc3)C(=O)NO)cc2)cc1" when you can.
8.49

###

pIC50: −log10 of the molar value.
From various publications: pIC50 for MMP-8 (Homo sapiens).
Records here are stratified by pIC50; strata: Low: < 5; Medium: ≥ 5 and < 7; High: ≥ 7

Solved entries:
INSERT INTO results (compound, assigned_class) VALUES
  ('NC(=O)c1cccc(COc2ccc3oc(C(=O)CC(CCn4nnc5ccccc5c4=O)C(=O)O)cc3c2)c1 (single isomer, unassigned; (+))', 'Medium'),
  ('CCCCCSc1ccc(C(=O)[C@H]2CC[C@@H](Cn3nnc4ccc(C(F)(F)F)cc4c3=O)[C@@H]2C(=O)O)cc1 (racemic)', 'High'),
  ('O=C(C[C@H](CCn1nnc2ccccc2c1=O)C(=O)O)c1noc2cc(OCC3CCOCC3)ccc12 (single isomer, unassigned; enantiomer 2)', 'Medium'),
  ('O=C(CC(CCn1nnc2ccccc2c1=O)C(=O)O)c1cc2cc(OCC3CCCCC3)ccc2o1 (racemic)', 'Low'),
  ('O=C(O)[C@H]1[C@H](Cn2nnc3ccccc3c2=O)CC[C@@H]1C(=O)c1ccc(OCc2ccc(Cl)c(Cl)c2)cc1 (racemic)', 'Medium'),
  ('O=C(O)[C@@H]1[C@@H](Cn2nnc3ccc(C(F)(F)F)cc3c2=O)CC[C@H]1C(=O)c1ccc(OCC2CCCC2)cc1 (single isomer, unassigned)', 'High'),
  ('O=C(O)[C@@H]1[C@@H](Cn2nnc3ccc(C(F)(F)F)cc3c2=O)CC[C@H]1C(=O)c1ccc(OCCC2CCOCC2)cc1 (single isomer, unassigned)', 'High'),
  ('Cc1cc(COc2ccc(S(=O)(=O)CC(CC3CCN(S(C)(=O)=O)CC3)N(O)C=O)cc2)c2ccccc2n1 (stereo not shown)', 'Low'),
  ('Cc1ccccc1C(CS(=O)(=O)c1ccc(OCc2ccc3ccccc3n2)cc1)N(O)C=O (stereo not shown)', 'Low'),
  ('O=C(CC(CCn1nnc2ccccc2c1=O)C(=O)O)c1cc2ccc(OCCc3ccccc3)cc2s1 (racemic)', 'Medium');

Query compound follows.
// return the class label for Cc1cc(COc2ccc(S(=O)(=O)CC(N(O)C=O)C3(C)CCC4(CC3)OCCO4)cc2)c2ccccc2n1 (stereo not shown)
Low

###

From various publications: pIC50 for MMP-8 (Homo sapiens).
Give only the number. pIC50 is defined as minus log10 of concentration in molar units.

Consider the following illustrative entries.
INSERT INTO assay_data (compound, target, result_value) VALUES
  ('Cc1cc(COc2ccc(S(=O)(=O)CC(CC3CCOCC3)N(O)C=O)cc2)c2ccccc2n1 (stereo not shown)', 'MMP-8 (Homo sapiens)', 4.72),
  ('O=C(CC(CCn1nnc2ccccc2c1=O)C(=O)O)c1coc2cc(OCCC3CCCC3)ccc12 (racemic)', 'MMP-8 (Homo sapiens)', 5.48),
  ('O=C(CC(CCn1nnc2ccccc2c1=O)C(=O)O)c1cc2cc(OCc3cccc(Cl)c3)ccc2o1 (racemic)', 'MMP-8 (Homo sapiens)', 4.44),
  ('C[C@H](Cc1ccc(C(F)(F)F)cc1)C(=O)NC[C@@]1(C2CC2)NC(=O)NC1=O', 'MMP-8 (Homo sapiens)', 7.75),
  ('O=C(CC(CCn1nnc2ccccc2c1=O)C(=O)O)c1cc2cc(OCCc3ccc(Cl)cc3)ccc2o1 (racemic)', 'MMP-8 (Homo sapiens)', 4.85);

State the measured pIC50 (MMP-8 (Homo sapiens)) of O=C(O)[C@H]1[C@H](Cn2nnc3ccc(C(F)(F)F)cc3c2=O)CC[C@@H]1C(=O)c1ccc(OCCC2CCOCC2)cc1 (stereo in doubt)
8.41

State the measured pIC50 (MMP-8 (Homo sapiens)) of Cc1cc(COc2ccc(S(=O)(=O)CC(C=C3CCN(C(=O)OC(C)(C)C)CC3C)N(O)C=O)cc2)c2ccccc2n1 (stereo not shown)
4.62

State the measured pIC50 (MMP-8 (Homo sapiens)) of Cc1cncc(C(CS(=O)(=O)c2ccc(OCc3cc(C)nc4ccc(C)cc34)cc2)N(O)C=O)c1 (stereo not shown)
4.28

State the measured pIC50 (MMP-8 (Homo sapiens)) of Cc1ccc2nc(C)cc(COc3ccc(S(=O)(=O)CC(C=C4CCOCC4)N(O)C=O)cc3)c2c1 (stereo not shown)
4.19

State the measured pIC50 (MMP-8 (Homo sapiens)) of O=C(CC(CCn1nnc2ccccc2c1=O)C(=O)O)c1cc2cc(OCCC3CCOCC3)ccc2o1 (racemic)
5.41
